Molecular target: Albumin (Bos taurus) (UniProt P02769)
Sequence (P02769 whole entry, looked up): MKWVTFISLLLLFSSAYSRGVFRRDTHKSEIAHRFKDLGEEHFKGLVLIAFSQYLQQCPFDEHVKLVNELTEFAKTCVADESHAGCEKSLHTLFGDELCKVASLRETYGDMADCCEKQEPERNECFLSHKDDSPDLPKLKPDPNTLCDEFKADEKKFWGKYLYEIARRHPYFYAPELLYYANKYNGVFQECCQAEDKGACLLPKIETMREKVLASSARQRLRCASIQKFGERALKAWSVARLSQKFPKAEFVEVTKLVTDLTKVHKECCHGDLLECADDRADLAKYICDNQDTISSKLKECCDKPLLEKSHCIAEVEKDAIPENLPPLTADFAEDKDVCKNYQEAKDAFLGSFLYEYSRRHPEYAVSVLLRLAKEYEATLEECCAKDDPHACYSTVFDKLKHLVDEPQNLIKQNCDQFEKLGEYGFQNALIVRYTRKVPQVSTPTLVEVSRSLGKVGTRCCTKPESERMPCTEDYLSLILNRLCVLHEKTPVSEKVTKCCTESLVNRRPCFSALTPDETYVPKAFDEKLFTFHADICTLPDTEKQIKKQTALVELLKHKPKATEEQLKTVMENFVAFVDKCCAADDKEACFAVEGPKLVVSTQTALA
Assay: bovine serum albumin binders on microarray, profiling panel, artefact control for SMM control protein annotation, biochemical, small-molecule microarray, Alexa647 label, 635/667 nm fluorescence (AID 1118);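 note: score merges 667 nm emission intensity and signal-to-noise per printed compound spot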
Settings: BSA-A647 binding, fluorescence 635 nm, higher = more signal
experimental-readout: composite z-score
A bare number is all that is needed in reply.

# count of solved cases: 3
[
  {
    "compound": "CC(C)(C)N1CC=CC23O[C@@H]4C=CCCOC(=O)C4[C@H]2C(=O)N(CCO)[C@@H]3C1=O (stereo partly drawn)",
    "experimental-readout": "composite z-score",
    "recorded-measurement": -0.0163
  },
  {
    "compound": "CCCCO[C@H]1C[C@H]2C(I)=C[C@@H]1C(=O)[C@]21CO1",
    "experimental-readout": "composite z-score",
    "recorded-measurement": -0.369
  },
  {
    "compound": "COCCCNC(=O)[C@@]1(Cc2ccccc2N=[N+]=[N-])N=C(c2ccc(OCCCO)cc2)O[C@H]1c1ccccc1",
    "experimental-readout": "composite z-score",
    "recorded-measurement": 0.533
  }
]

[in] Give the reported value of composite z-score for this record: C=CCC(OC(C)=O)[C@@H]1[C@@H](N(Cc2cc3ccccc3o2)C(=O)c2ccc(C)cc2)c2cc(OCCCO)ccc2N1C(=O)Cc1ccc(OC)cc1 (stereo partly drawn)
[out] -0.204

###

The reader will find reported z-score values listed item by item below.
Assay: HepG2 cell viability effects, profiling panel, calcein-AM fluorescence, 48 h, basal (AID 1164); note: test concentration not given here
Conditions: higher = more signal
A bare number is all that is needed in reply.

# count of solved cases: 5
[
  {
    "molecule": "CC(c1ccccc1)C(O)C1C=CC2C(=O)N(c3ccccc3)C(=O)C2N1Nc1ccc([N+](=O)[O-])cc1 (configuration not stated)",
    "recorded-measurement": 0.204
  },
  {
    "molecule": "COC(=O)[C@@]1(Cc2ccc(F)cc2)[C@H]2c3cc(C(=O)N4CCCC4)n(CCN4CNCC4=O)c3C[C@H]2CN1C(=O)c1ccccc1",
    "recorded-measurement": -0.403
  },
  {
    "molecule": "COc1cc2c(cc1OC)CN(C(=O)[C@@H]1[C@H]3C(=O)O[C@H](c4ccccc4)[C@H](c4ccccc4)N3[C@H](c3ccc(OCCO)cc3)[C@@]13C(=O)Nc1ccccc13)CC2",
    "recorded-measurement": 1.35
  },
  {
    "molecule": "Cc1ccc(S[C@]2(C(=O)NCCCN(C)C)CC(=O)N(C3CCCCC3)[C@@H]2c2ccc(CO)cc2)cc1",
    "recorded-measurement": -0.0685
  },
  {
    "molecule": "CCCCCCCCCCC(O)C1C=CC2C(=O)N(C)C(=O)C2N1Nc1ccc([N+](=O)[O-])cc1[N+](=O)[O-] (configuration not stated)",
    "recorded-measurement": -1.2
  }
]

[in] Give the reported value of z-score for this record: COC(=O)c1c2oc(c1C(=O)OC)C(=O)N(Cc1ccccc1)Cc1cn(nn1)C[C@H](Cc1ccccc1)NC(=O)N[C@H](CO)CC2
[out] 0.377

[in] Give the reported value of z-score for this record: O=C(NCC(F)(F)F)[C@@H]1c2ccccc2C(=O)N(Cc2ccc(OC(F)(F)F)cc2)[C@H]1c1ccc(CO)cc1
[out] -0.27

###

Assay: splicing luciferase reporter signal modulators, primary screen, spliceosome inhibition project, cell-based, HEK293, splice +/- reporter (AID 1101);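 note: HEK293 cells carrying a splicing-competent luciferase reporter gene; test concentration not given here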
Details: luminescence, 24 h, higher = more signal, called active from +8 up or from −8 down
experimental-readout: z-score
A bare number is all that is needed in reply.

# count of solved cases: 3
[
  {
    "mol": "COc1ccc([Si](C)(C)[C@H]2[C@H](CC(=O)N(CCO)Cc3ccccc3)O[C@@]3(C(=O)N(Cc4cccc(N5CCOC5=O)c4)c4ccccc43)[C@@H]2C)cc1",
    "experimental-readout": "z-score",
    "recorded-measurement": -2.44
  },
  {
    "mol": "COC(=O)[C@@]1(Cc2ccccc2)[C@H]2c3cc(C(=O)N(C)C)n(CCN4CNCC4=O)c3C[C@H]2CN1C(=O)c1ccccc1",
    "experimental-readout": "z-score",
    "recorded-measurement": 1.25
  },
  {
    "mol": "COc1ccc([Si](C)(C)[C@@H]2[C@@H](CC(=O)N3Cc4ccccc4C[C@H]3CO)O[C@]3(C(=O)N(C)c4ccccc43)[C@H]2C)cc1",
    "experimental-readout": "z-score",
    "recorded-measurement": -1.42
  }
]

# next compound below
[in] Give the reported value of z-score for this record: CCOC(=O)C1=C[C@@H](c2ccccc2)N(S(=O)(=O)c2ccc(C)cc2)[C@H]1c1ccccc1Cl
[out] 0.328

###

The reader will find reported composite z-score values listed item by item below.
Target: Albumin (Bos taurus) (UniProt P02769)
Assay: bovine serum albumin binders on microarray, profiling panel, artefact control for SMM control protein annotation, biochemical, small-molecule microarray, Alexa647 label, 635/667 nm fluorescence (AID 1118);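 note: score merges 667 nm emission intensity and signal-to-noise per printed compound spot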
Settings: BSA-A647 binding, fluorescence 635 nm, higher = more signal
A bare number is all that is needed in reply.

[
  {
    "compound": "N#Cc1ccc(C(O)C2C=CC3C(=O)N(c4ccccc4)C(=O)C3N2Nc2ccccc2)cc1 (centres undefined)",
    "subject-of-test": "Albumin (Bos taurus) (UniProt P02769)",
    "composite z-score": 1.01
  },
  {
    "compound": "O=C1N(Cc2ccccc2)c2ccccc2[C@@H]2OC(c3ccc(OCCCO)cc3)=N[C@]12Cc1ccccc1",
    "subject-of-test": "Albumin (Bos taurus) (UniProt P02769)",
    "composite z-score": -0.34
  }
]

[in] Give the reported value of composite z-score for this record: C[C@@H]1NC(=O)[C@@]23C(=O)N[C@@H](Cc4ccccc4)C2[C@H](C)[C@@]2(C)O[C@H]2C3/C=C/C/C=C\CNC(=O)[C@@H]2CCCN2C1=O (some centres undefined)
[out] -0.397

[in] Give the reported value of composite z-score for this record: O=C1c2ccccc2[C@](Cc2ccccc2I)(C(=O)NCC(F)(F)F)[C@H](c2ccc(CO)cc2)N1C1CCCCC1
[out] 0.689

###

Experiment: PSAC antagonists in infected red cells, primary screen, cell-based, P. falciparum Indochina, OD700, 18 h (AID 1157)
Conditions: P. falciparum Indochina infected erythrocytes, osmotic lysis OD700, 18 h; higher = more signal, called active from +8 up or from −8 down
experimental-readout: z-score
A bare number is all that is needed in reply.

[
  {
    "compound": "COc1cc(OC)c(C(O)C2C=CC3C(=O)N(c4ccccc4)C(=O)C3N2Nc2ccccc2)cc1Br (centres undefined)",
    "z-score": 2.03
  }
]

[in] Give the reported value of z-score for this record: O=C1O[C@@H](c2ccccc2)[C@@H](c2ccccc2)N2[C@@H](c3ccc(O)cc3)[C@]3(C(=O)Nc4ccc(C#CC5=CCCCC5)cc43)[C@@H](C(=O)NC[C@H](O)c3ccccc3)[C@H]12
[out] 0.933

[in] Give the reported value of z-score for this record: COc1ccc([Si](C)(C)[C@@H]2[C@@H](CC(=O)N(CCO)Cc3ccccc3)O[C@]3(C(=O)N(c4ccccc4)c4ccccc43)[C@H]2C)cc1
[out] 0.303

[in] Give the reported value of z-score for this record: COc1cccc(/C=C/C=O)c1
[out] -0.0641

###

Test: P. aeruginosa biofilm formation inhibitors, primary screen, strain PAO1, LB-PBS medium, absorbance 600 nm (AID 1176); note: test concentration not given here
Settings: P. aeruginosa PAO1 growth/biofilm, A600, 12 h; higher = more signal
Class satisfied: z-score at least 0.2. Class not satisfied: z-score below 0.2.

[in] Can COC(=O)c1c(CC[C@@H](CO)NC(=O)N[C@H](Cn2cc(C3(O)CCCCC3)nn2)C(C)C)oc(C(C)=O)c1C(=O)OC be said to have z-score at or above 0.2?
[out] not satisfied

[in] Can [N-]=[N+]=Nc1ccccc1[C@@H]1OC(c2ccc(OCCCO)cc2)=N[C@]1(Cc1ccccc1)C(=O)NCC(O)CO (stereo partly specified) be said to have z-score at or above 0.2?
[out] not satisfied

[in] Can C=CCC(OC(C)=O)[C@@H]1[C@@H](N(Cc2cc3ccccc3o2)C(=O)c2ccc(C)cc2)c2cc(OCCCO)ccc2N1C(=O)Cc1ccc(OC)cc1 (stereo partly specified) be said to have z-score at or above 0.2?
[out] not satisfied

[in] Can O=C1O[C@H](c2ccccc2)[C@H](c2ccccc2)N2[C@H]1[C@@H](C(=O)O)[C@]1(C(=O)Nc3ccc(C#CC4=CCCCC4)cc31)[C@H]2c1ccc(O)cc1 be said to have z-score at or above 0.2?
[out] satisfied

[in] Can O=C1O[C@@H](c2ccccc2)[C@@H](c2ccccc2)N2[C@@H](c3ccc(O)cc3)[C@]3(C(=O)Nc4ccc(C#CC5=CCCCC5)cc43)[C@@H](C(=O)NC[C@H](O)c3ccccc3)[C@H]12 be said to have z-score at or above 0.2?
[out] satisfied

Numbers sourced from PubChem BioAssay.
